# tested.on: wild-type human ALK protein (cytoplasmic domain, amino acid 1058-1620, N-terminal GST-fusion) (Homo sapiens)
# Construct: The cytoplasmic domain (amino acid 1058-1620) of wild-type human ALK protein; GST (N)
# Sequence (Q9UM73 1058-1620): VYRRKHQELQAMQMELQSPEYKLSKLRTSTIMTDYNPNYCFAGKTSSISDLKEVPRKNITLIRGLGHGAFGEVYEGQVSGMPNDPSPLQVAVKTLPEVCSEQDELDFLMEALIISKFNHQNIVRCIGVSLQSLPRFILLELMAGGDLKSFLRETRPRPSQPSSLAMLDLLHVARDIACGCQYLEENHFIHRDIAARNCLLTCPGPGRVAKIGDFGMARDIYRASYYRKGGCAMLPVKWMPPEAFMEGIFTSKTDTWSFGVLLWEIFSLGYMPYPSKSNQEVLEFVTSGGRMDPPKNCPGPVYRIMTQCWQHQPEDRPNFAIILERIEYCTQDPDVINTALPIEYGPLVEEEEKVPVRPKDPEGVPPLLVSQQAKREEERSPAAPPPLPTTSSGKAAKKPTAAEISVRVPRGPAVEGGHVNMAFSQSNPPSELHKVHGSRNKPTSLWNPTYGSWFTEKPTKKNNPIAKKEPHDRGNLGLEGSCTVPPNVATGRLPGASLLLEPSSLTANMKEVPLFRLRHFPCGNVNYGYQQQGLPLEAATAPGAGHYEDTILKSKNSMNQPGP
# protocol.text: Enzymatic inhibition assay (time-resolved fluorescence, peptide substrate phosphorylation)
# reported.conditions: ATP 100 μM, 30 min pre-incubation, 90 min reaction, read-out: WT IC50
Counter-ions that a name gives are not always drawn.
Listing: pIC50 of selected compounds
Field pIC50 (float): negative decimal logarithm of the concentration in molar.

Example cases with answers are listed next.
COCCOc1cc2c(=O)c3c4ccc(C#N)cc4[nH]c3n(C(C)C)c2c(F)c1N1C[C@@H](C)N(C)[C@@H](C)C1 [compound 10, (TFA salt)] ... 7.77
COCCOc1cc2c(=O)c3c4ccc(C#N)cc4[nH]c3n(C(C)C)c2c(F)c1N1CCN(C2CCOCC2)CC1 [compound 9, (TFA salt)] ... 7.26
COc1c(N2C[C@@H](C)N(C)[C@@H](C)C2)cc2c(c1F)c(=O)c1c3ccc(C#N)cc3[nH]c1n2C(C)C [compound 8] ... 9.28

From here, focus on the item given below.
May I ask what pIC50 has been recorded for CC(C)Oc1c(N2CCN(C(C)C)CC2)cc2c(c1F)c(=O)c1c3ccc(C#N)cc3[nH]c1n2C(C)C [compound 4] ?
9.08
